methodNotes: Human in vivo PK data: concentration-dose ratio (CDR) and toxicokinetic variability factor (TKVF);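 also: Literature-pooled human in vivo PK data, plasma, serum or cord blood concentrations per daily dose, weighted by study population size across non-pregnant, pregnant and fetal groups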
setupConditions: human, in vivo, po
Use t when the recorded TKVF is no lower than 3; use f when it is lower.

compound	categoryLabel
O=C1CN(/N=C/c2ccc([N+](=O)[O-])o2)C(=O)N1	t
CC(=O)CC(c1ccccc1)c1c(O)c2ccccc2oc1=O (centres unmarked)	f
O=C1CCC(N2C(=O)c3ccccc3C2=O)C(=O)N1 (centres unmarked) [Thalidomide]	f
Cn1c(=O)c2c(ncn2C)n(C)c1=O	f

Now let's try a different one.
Task: Textbook exercise: given the entry CN(CCOc1ccc(CC2SC(=O)NC2=O)cc1)c1ccccn1 (centres unmarked) , state whether its TKVF is greater than or equal to 3.
Result: t
